Target: Caspase-7 (Homo sapiens)
Assay: activators of human procaspase-7 D3A mutant – biochemical, absorbance, PC-7 D3A triple mutant, powder samples, selectivity assay for procaspase-3 activator project, late-stage follow-up (AID 504814)
Settings: recombinant procaspase-7 D3A, Ac-DEVD-pNA absorbance
Calls of active or inactive are those of the source.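 How the source made its calls: active means EC50 of 10 µM or lower; inactive means EC50 above 10 µM.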
Outcome codes: 1 = active, 0 = inactive

> print(dat)
                                   compound  category
1  CC(NC(=O)c1cc2cc([N+](=O)[O-])ccc2oc1=O)C1CCCO1 (stereo not given)         0
2  C=CCn1c(=NC(=O)c2cc(-c3cccs3)nc3ccccc23)sc2cc(S(N)(=O)=O)ccc21         1
3           COc1ccccc1Nc1nc2c(C)cccc2cc1C#N         0
4  COC(=O)c1ccccc1NCc1cc(=O)oc2cc(O)c(O)cc12         0
5  CC(=O)Oc1cccc2c1C(=O)c1c(OC(C)=O)cc(C(=O)O)cc1C2=O         0
